Kcat values by entry
test-description: Standard protocol for determination of kcat and KM (continuous spectrophotometric assay, Acetyl CoA hydrolysis at 235 nm)
Format: biochemical
cond: purified protein; about 23° C.; 20 mM HEPES pH 6.8, 10% ethylene glycol, 0.2 mM acetyl CoA

>  <molecule>
SEQ ID NO: 393: GAT polypeptide (protein, 6_20A9, GAT polypeptide) MIEVKPINAGDTYEIRHRILRPNQPLEACKYETDLLGGTFHLGGYYRGKLISIASFHQAEHSELEGQKQYQLRGMATLEGYREQKAGSTLIRHAEELLRKKGADLLWCNARTSASGYYKKLGFSEQGGVYDIPPVGPHILMYKKLT

>  <Kcat, s⁻¹>
0.752

$$$$
>  <molecule>
SEQ ID NO: 303: GAT polypeptide (protein, 13_7C1, GAT polypeptide) MIEVKPINAEDTYEIRHRILRPNQPLEACKYETDLLRGAFHLGGYYRGKLISIASFHQAEHPELEGQKQYQLRGMATLEGYREQKAGSTLIRHAEELLRKKGADLLWCNARTSARGYYKKLGFSEQGEVYDIPPTGPHILMYKKLT

>  <Kcat, s⁻¹>
0.802

$$$$
>  <molecule>
SEQ ID NO: 286: GAT polypeptide (protein, 12_1F9, GAT polypeptide) MIEVKPINAEDTYEIRHRILRPNQPLEACKYETDLLGGTFHLGGYYRGKLISIASFHQAEHPELEGQKQYQLRGMATLEGYREQKAGSTLIRHAEELLRKKGADLLWCNARTSASGYYKKLGFSEQGEVHDIPPTGPHILMYKKLT

>  <Kcat, s⁻¹>
1.34

$$$$
